Assay: Solubility in β-cyclodextran
Assay type: physicochemical
Hi! Just check whether Solubility in β-Cyclodextran (mg β-CD/μmol Compound) is below 6 mg β-CD/μmol Compound. Below gives class 1, equal or above gives class 0.

{"smiles string": "C=CCc1cccc(/C=N/NC(=O)CN2CCN(Cc3ccc(S(N)(=O)=O)cc3)CC2)c1O", "discrete label": "class 1"}
{"smiles string": "C=CCc1cccc(/C=N/NC(=O)CN2CCN(Cc3cc(OC)ccc3OC)CC2)c1O", "discrete label": "class 0"}
{"smiles string": "C=CCc1cccc(/C=N/NC(=O)CN2CCN(Cc3cccc([N+](=O)[O-])c3)CC2)c1O", "discrete label": "class 1"}
{"smiles string": "C=CCc1cccc(/C=N/NC(=O)CN2CCN(Cc3cccc(C(=O)O)c3)CC2)c1O", "discrete label": "class 1"}
{"smiles string": "C=CCc1cccc(/C=N/NC(=O)CN2CCN(Cc3ccc(OC)cc3)CC2)c1O", "discrete label": "class 0"}
{"smiles string": "C=CCc1cccc(/C=N/NC(=O)CN2CCN(Cc3ccccc3)CC2)c1O", "discrete label": "class 1"}

* * *

Target: caspase-3 (Homo sapiens, UniProt P42574)
Construct: Active caspase-3 is a homodimer of heterodimers and is produced by proteolysis of procaspase-3; 6xHis (C); made in house; host or cells: Escherichia coli BL21(DE3), plasmid pHC332
Sequence (P42574 29-175 limits assumed): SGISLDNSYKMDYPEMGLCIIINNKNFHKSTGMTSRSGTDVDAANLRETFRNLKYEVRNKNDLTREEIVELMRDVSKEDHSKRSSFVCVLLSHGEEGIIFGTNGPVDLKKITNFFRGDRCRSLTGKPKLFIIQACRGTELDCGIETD
Sequence (P42574 176-277 limits assumed): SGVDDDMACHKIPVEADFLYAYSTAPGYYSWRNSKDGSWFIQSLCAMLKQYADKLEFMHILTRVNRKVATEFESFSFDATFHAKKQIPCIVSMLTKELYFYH
Assay: Caspase-3 activity assay (relief of zinc mediated inhibition)
Type: biochemical
Conditions: 10 μM compound, 2.5 μM zinc
Hi, to clarify the labels: T covers activation at 10 µM from 20% upward, F covers anything below 20%.

{"smiles string": "O=C(CN1CCN(Cc2ccccc2)CC1)NCCc1ccccc1O", "discrete label": "F"}
{"smiles string": "O=C(CN1CCN(Cc2ccccc2)CC1)NCc1ccccc1O", "discrete label": "F"}
{"smiles string": "C=CCc1cccc(/C=N/NC(=O)CN2CCN(Cc3cc(OC)ccc3OC)CC2)c1O", "discrete label": "T"}
{"smiles string": "C=CCc1cccc(/C=N/NC(=O)CN2CCN(Cc3ccc(OC)cc3)CC2)c1O", "discrete label": "T"}
{"smiles string": "C=CCc1cccc(/C=N/NC(=O)CN2CCN(Cc3cccc(Cn4cc(CNC(=O)Cc5c(C)c6cc(S(=O)(=O)O)c(N)cc6oc5=O)nn4)c3)CC2)c1O", "discrete label": "F"}
{"smiles string": "C=CCc1cccc(/C=N/NC(=O)CN2CCN(Cc3ccc(F)cc3)CC2)c1O", "discrete label": "T"}
{"smiles string": "C=CCc1cccc(/C=N/NC(=O)CN2CCC(Cc3ccccc3)CC2)c1O", "discrete label": "T"}
{"smiles string": "C=CCc1cccc(/C=N/NC(=O)CN2CCN(Cc3ccccn3)CC2)c1O", "discrete label": "T"}
